biological target: factor VIIa/tissue factor (Homo sapiens, UniProt P08709); construct: human factor VIIa and TF (5 nM and 10 nM, respective final concentration); test: Factor VIIa (FVIIa) chromogenic assay; assay type: biochemical; conditions: human factor VIIa 5 nM and TF 10 nM, substrate S-2288 500 μM, 25° C., 15 minute preincubation
Sequence (P08709 213-466 limits assumed): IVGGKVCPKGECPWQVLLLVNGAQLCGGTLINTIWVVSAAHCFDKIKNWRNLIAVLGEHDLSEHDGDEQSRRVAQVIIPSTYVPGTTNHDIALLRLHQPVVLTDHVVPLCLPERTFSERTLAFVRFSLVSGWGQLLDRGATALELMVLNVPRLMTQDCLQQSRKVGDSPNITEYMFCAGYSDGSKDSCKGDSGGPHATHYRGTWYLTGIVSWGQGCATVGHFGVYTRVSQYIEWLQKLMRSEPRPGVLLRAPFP
Sequence (P08709 61-212 limits assumed): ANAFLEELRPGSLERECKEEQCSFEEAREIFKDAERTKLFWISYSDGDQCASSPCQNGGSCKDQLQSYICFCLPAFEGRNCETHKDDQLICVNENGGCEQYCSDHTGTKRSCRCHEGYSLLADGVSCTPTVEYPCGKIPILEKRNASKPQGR
Sequence (P13726 33-295 partner): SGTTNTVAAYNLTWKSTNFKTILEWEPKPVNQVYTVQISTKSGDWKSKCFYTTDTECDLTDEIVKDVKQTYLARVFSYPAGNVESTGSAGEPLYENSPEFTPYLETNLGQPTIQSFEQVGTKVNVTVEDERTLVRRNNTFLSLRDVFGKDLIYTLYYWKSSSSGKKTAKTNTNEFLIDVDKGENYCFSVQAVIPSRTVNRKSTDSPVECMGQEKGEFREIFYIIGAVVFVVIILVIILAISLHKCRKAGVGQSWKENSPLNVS
Result type: Ki (nM)

>  <Compound>
C[C@H](NC(=O)CNC(=O)Nc1ccc(C(=N)N)cc1)c1ccccc1 [Example 18]

>  <Ki (nM)>
430

$$$$
>  <Compound>
CC(NC(=O)CNC(=O)Nc1ccc(C(=N)N)cc1)c1ccc(NC(=O)CCCN)cc1 (centres unmarked) [Example 54]

>  <Ki (nM)>
47

$$$$
>  <Compound>
CN(C)c1ccc(CNC(=O)C(Cc2ccccc2)NC(=O)Nc2ccc(C(=N)N)cc2)cc1 (centres unmarked) [Example 2]

>  <Ki (nM)>
20900

$$$$
>  <Compound>
N=C(N)c1ccc(NC(=O)NCC(=O)NC(c2ccccc2)c2ccccc2)cc1 [Example 5]

>  <Ki (nM)>
730

$$$$
>  <Compound>
C[C@H](NC(=O)[C@H](CCC(=O)O)NC(=O)Nc1ccc(C(=N)N)cc1)c1cccc(Br)c1 [Example 70]

>  <Ki (nM)>
539

$$$$
>  <Compound>
CC(NC(=O)CNC(=O)Nc1ccc(C(=N)N)cc1)c1ccc(Oc2ccc([N+](=O)[O-])cc2)cc1 (centres unmarked) [Example 37]

>  <Ki (nM)>
86

$$$$

[I] CC(NC(=O)CNC(=O)Nc1ccc(C(=N)N)cc1)c1ccc(Oc2ccc(Cl)cc2Cl)cc1 (centres unmarked) [Example 9]
[II] Cc1ccc([C@H](C)NC(=O)CNC(=O)Nc2ccc(C(=N)N)cc2)cc1 [Example 21]
Of I and II , which one carries the higher reported Ki? Pick one and reply with its label.
I
(I: 480 nM, II: 130 nM)

---

molecular target: factor VIIa/tissue factor (Homo sapiens, UniProt P08709); construct: human factor VIIa and TF (5 nM and 10 nM, respective final concentration); test: Factor VIIa (FVIIa) chromogenic assay; details: human factor VIIa 5 nM and TF 10 nM, substrate S-2288 500 μM, 25° C., 15 minute preincubation
Result type: Ki (µM)

Guide cases for Ki, answers given:
>  <Compound>
CC(NC(=O)CNC(=O)Nc1ccc(C(=N)N)cc1)c1ccc(NC(=O)c2cccnc2)cc1 (centres unmarked)

>  <Ki (µM)>
0.05

$$$$
>  <Compound>
COC(=O)c1cc(C(C)NC(=O)CNC(=O)Nc2ccc(C(=N)N)cc2)ccc1OCc1ccccc1 (centres unmarked)

>  <Ki (µM)>
0.033

$$$$
>  <Compound>
CC(C)(NC(=O)CNC(=O)Nc1ccc(C(=N)N)cc1)c1ccccc1

>  <Ki (µM)>
7.62

$$$$

[1] N#CC(NC(=O)CNC(=O)Nc1ccc(C(=N)N)cc1)c1ccc(F)cc1 (centres unmarked)
[2] C[C@@H](NC(=O)CNC(=O)Nc1ccc(C(=N)N)cc1)c1ccccc1
Of 1 and 2 , which one carries the higher reported Ki? Pick one and reply with its label.
2

These entries and their values trace back to patent US6743790B2.
